Test system: LCLC-97TM1
Assay: relative viability (nuclei count vs DMSO), 5 days (fraction); higher = more cells survive
Conditions: first compound 50 µM

# compound, relative viability
data = [
    ("O=C(O)CCCCC(CCSCc1ccccc1)SCc1ccccc1 (configuration not stated) [CPI-613] + CC1(C)CCC(c2ccc(Cl)cc2)=C(CN2CCN(c3ccc(C(=O)NS(=O)(=O)c4ccc(N[C@H](CCN5CCOCC5)CSc5ccccc5)c(S(=O)(=O)C(F)(F)F)c4)cc3)CC2)C1 [Navitoclax] (partner 0.5 µM)", 0.658),
    ("O=C(O)CCCCC(CCSCc1ccccc1)SCc1ccccc1 (configuration not stated) [CPI-613] + C[C@]1(O)C[C@@H](c2nc(-c3ccc4ccc(-c5ccccc5)nc4c3)c3c(N)nccn32)C1 [Linsitinib] (partner 1 µM)", 0.199),
    ("O=C(O)CCCCC(CCSCc1ccccc1)SCc1ccccc1 (configuration not stated) [CPI-613] + O=C(c1cc(Cc2n[nH]c(=O)c3ccccc23)ccc1F)N1CCN(C(=O)C2CC2)CC1 [Olaparib] (partner 8 µM)", 0.372),
    ("O=C(O)CCCCC(CCSCc1ccccc1)SCc1ccccc1 (configuration not stated) [CPI-613] + Cc1nc(NC(=O)N2CCC[C@H]2C(N)=O)sc1-c1ccnc(C(C)(C)C(F)(F)F)c1 [Alpelisib] (partner 2 µM)", 0.311),
    ("O=C(O)CCCCC(CCSCc1ccccc1)SCc1ccccc1 (configuration not stated) [CPI-613] + COc1cccc2cc(-c3nc([C@H]4CC[C@H](C(=O)O)CC4)n4ncnc(N)c34)[nH]c12 [OSI-027] (partner 0.5 µM)", 0.67),
    ("O=C(O)CCCCC(CCSCc1ccccc1)SCc1ccccc1 (configuration not stated) [CPI-613] + N=C(N)NC(=N)NCCc1ccccc1 [Phenformin] (partner 250 µM)", 0.405),
    ("O=C(O)CCCCC(CCSCc1ccccc1)SCc1ccccc1 (configuration not stated) [CPI-613] + NC(=O)Nc1cc(-c2cccc(F)c2)sc1C(=O)N[C@H]1CCCNC1 [AZD7762] (partner 0.2 µM)", 0.229),
]

Ref: the supplement of paper PMC10307832
